Molecular target: Tyrosine-protein kinase Lck (Homo sapiens, UniProt P06239)
Sequence (P06239 whole entry): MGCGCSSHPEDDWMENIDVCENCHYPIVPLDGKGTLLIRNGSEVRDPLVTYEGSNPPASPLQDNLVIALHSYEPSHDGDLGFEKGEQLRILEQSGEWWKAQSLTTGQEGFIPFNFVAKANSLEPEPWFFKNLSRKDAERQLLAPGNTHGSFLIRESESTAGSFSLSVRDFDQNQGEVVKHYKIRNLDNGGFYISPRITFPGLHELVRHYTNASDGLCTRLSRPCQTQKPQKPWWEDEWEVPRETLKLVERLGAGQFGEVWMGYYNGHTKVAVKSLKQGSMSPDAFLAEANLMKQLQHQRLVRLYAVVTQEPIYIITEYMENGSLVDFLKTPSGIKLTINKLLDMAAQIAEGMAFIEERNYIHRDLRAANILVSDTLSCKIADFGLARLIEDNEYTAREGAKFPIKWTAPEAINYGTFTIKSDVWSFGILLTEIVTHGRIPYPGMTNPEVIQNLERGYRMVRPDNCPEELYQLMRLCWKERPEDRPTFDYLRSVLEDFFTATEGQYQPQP
Assay endpoint: Ki (nM)
Answer format: numeric, nM implied, no suffix.

Please state recorded Ki (tested on Tyrosine-protein kinase Lck (Homo sapiens, UniProt P06239)) of Cc1cccc(Cl)c1NC(=O)c1ccc2nc(NC(=O)NC(C)(C)C)sc2c1 4
